Where do the numbers come from? From ChEMBL document CHEMBL2417539.

# target_system: DNA-dependent protein kinase catalytic subunit (Homo sapiens, UniProt P78527)
# Sequence (P78527 whole entry): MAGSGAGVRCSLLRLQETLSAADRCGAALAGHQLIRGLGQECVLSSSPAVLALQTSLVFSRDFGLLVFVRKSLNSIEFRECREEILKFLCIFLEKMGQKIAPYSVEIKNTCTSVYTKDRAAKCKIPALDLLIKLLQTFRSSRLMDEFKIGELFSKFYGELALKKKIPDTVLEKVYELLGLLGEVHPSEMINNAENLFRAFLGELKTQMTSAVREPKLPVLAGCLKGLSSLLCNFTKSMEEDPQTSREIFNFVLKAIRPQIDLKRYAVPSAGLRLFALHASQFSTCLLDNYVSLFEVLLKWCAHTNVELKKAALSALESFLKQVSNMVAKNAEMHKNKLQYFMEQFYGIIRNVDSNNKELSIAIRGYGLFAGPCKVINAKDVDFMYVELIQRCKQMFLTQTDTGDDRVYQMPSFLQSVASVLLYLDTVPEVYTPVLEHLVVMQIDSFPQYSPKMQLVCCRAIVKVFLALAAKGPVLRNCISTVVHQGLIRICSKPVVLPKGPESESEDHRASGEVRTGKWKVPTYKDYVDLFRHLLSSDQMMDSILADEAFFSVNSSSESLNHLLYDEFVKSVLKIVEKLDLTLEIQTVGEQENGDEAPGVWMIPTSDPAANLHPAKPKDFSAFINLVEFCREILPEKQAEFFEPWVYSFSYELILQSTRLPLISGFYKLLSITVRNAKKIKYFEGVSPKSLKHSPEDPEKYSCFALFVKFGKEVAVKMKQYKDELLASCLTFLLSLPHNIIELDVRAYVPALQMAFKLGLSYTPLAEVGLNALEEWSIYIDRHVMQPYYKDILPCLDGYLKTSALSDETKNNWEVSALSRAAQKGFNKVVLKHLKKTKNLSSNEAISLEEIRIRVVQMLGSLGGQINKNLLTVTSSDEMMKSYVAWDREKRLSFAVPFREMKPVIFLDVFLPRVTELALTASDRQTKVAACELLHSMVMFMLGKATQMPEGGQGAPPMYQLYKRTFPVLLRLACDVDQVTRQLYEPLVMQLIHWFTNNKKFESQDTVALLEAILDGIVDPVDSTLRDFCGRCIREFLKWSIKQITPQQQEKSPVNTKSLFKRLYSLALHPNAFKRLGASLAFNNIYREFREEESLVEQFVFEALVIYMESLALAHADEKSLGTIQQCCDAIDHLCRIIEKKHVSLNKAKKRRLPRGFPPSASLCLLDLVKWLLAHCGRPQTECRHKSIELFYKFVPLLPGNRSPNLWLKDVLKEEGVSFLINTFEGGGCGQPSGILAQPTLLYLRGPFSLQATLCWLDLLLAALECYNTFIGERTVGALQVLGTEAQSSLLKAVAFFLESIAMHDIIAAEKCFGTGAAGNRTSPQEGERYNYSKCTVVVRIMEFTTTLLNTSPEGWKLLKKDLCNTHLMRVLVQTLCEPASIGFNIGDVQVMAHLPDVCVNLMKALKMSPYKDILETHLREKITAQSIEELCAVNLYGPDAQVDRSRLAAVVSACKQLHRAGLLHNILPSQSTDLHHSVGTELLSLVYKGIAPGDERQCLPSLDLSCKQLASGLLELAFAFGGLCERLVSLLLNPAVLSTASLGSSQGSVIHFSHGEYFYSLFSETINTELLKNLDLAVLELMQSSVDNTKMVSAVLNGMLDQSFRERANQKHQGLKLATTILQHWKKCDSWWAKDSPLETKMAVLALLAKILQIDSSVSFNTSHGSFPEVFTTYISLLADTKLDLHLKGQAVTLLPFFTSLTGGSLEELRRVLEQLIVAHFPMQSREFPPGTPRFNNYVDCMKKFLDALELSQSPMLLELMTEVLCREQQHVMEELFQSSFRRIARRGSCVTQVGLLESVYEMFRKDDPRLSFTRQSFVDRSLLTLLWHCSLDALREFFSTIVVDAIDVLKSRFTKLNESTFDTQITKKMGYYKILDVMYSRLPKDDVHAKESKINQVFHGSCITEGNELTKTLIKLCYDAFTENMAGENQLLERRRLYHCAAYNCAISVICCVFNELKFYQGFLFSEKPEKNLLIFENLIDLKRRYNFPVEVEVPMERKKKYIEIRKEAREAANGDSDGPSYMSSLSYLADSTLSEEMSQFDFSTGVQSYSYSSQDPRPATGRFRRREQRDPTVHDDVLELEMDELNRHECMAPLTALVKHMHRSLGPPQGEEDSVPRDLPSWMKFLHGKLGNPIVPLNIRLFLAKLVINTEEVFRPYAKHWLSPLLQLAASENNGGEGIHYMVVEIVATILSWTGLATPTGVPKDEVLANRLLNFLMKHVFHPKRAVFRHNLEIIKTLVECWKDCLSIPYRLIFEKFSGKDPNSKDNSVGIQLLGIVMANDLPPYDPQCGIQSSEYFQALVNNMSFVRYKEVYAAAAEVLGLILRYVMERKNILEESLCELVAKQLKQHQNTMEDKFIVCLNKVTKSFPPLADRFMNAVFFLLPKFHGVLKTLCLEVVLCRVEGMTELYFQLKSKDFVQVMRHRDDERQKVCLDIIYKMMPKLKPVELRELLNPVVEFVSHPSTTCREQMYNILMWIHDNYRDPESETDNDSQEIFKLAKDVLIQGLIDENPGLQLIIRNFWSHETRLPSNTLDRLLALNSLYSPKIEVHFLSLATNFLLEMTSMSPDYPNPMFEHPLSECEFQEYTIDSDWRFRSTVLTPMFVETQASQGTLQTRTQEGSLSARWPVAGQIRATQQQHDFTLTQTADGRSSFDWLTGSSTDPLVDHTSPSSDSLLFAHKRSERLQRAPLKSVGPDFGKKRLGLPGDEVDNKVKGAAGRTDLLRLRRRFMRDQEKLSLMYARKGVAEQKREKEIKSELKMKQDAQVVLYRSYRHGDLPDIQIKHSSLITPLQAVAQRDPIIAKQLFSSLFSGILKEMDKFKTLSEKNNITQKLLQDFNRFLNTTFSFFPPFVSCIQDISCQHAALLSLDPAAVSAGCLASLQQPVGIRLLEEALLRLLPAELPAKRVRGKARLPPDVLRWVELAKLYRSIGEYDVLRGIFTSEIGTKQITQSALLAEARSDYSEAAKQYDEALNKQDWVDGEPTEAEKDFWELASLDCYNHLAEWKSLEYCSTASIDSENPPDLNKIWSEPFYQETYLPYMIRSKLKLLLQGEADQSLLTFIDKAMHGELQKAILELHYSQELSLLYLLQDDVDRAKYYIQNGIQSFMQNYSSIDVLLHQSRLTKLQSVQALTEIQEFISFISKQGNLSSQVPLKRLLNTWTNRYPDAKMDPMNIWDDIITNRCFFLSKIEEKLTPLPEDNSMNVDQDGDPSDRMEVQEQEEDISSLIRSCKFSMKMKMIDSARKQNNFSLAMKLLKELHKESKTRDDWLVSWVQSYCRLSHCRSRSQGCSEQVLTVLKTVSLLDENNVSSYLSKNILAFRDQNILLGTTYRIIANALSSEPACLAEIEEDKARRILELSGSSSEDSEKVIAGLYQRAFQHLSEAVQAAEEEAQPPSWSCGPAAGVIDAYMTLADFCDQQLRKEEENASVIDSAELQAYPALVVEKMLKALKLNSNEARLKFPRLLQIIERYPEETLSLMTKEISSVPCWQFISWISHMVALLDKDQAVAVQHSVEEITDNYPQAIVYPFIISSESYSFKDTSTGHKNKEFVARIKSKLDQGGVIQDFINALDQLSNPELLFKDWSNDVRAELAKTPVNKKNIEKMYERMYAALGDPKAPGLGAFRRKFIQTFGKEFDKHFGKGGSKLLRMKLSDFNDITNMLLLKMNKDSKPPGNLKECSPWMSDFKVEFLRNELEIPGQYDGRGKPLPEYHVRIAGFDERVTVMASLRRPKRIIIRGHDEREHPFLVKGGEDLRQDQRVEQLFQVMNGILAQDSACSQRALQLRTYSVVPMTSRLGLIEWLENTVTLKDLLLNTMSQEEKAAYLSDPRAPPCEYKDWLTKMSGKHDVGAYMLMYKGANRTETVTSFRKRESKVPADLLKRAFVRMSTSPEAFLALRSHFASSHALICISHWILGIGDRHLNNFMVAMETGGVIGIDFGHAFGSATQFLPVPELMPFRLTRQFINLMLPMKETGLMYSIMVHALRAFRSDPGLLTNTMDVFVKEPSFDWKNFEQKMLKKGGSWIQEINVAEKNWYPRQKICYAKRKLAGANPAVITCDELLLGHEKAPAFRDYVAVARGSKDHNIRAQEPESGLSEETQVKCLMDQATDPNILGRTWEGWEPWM
# experiment_description: Inhibition of human DNA-PK using GST-tagged p53N66 as substrate after 1 hr by ELISA-based chemiluminiscence assay
The entries below are paired with their reported pIC50.
In plain terms, pIC50 is the concentration in mol/L turned into minus its base-10 logarithm.

O=C(CN1CCNCC1)Nc1ccc(-c2cccc3c(=O)cc(N4CCOCC4)oc23)c2sc3ccccc3c12 :: 7.62
CN1CCN(CC(=O)Nc2ccc(-c3cccc4c(=O)cc(N5CCOCC5)oc34)c3sc4ccccc4c23)CC1 :: 7.92
CC(C)N1CCN(CC(=O)Nc2ccc(-c3cccc4c(=O)cc(N5CCOCC5)oc34)c3sc4ccccc4c23)CC1 :: 8.05
NCCNCCC(=O)Nc1ccc(-c2cccc3c(=O)cc(N4CCOCC4)oc23)c2sc3ccccc3c12 :: 7.66
O=C(COc1ccc(-c2cccc3c(=O)cc(N4CCOCC4)oc23)c2sc3ccccc3c12)N1CCCCC1 :: 7.72
CN1CCCN(CCOc2ccc(-c3cccc4c(=O)cc(N5CCOCC5)oc34)c3sc4ccccc4c23)CC1 :: 8.00
CCN1CCCC1CNCCC(=O)Nc1ccc(-c2cccc3c(=O)cc(N4CCOCC4)oc23)c2sc3ccccc3c12 (stereo not drawn) :: 7.31

Attention now turns to another entry.
Request: Give recorded pIC50 with DNA-dependent protein kinase catalytic subunit (Homo sapiens, UniProt P78527) for the following compound: `CC(C)N1CCN(CCC(=O)Nc2ccc(-c3cccc4c(=O)cc(N5CCOCC5)oc34)c3sc4ccccc4c23)CC1`
Response: 7.43

====

# target_system: Serine-protein kinase ATM (Homo sapiens)
quantity_measured: IC50

Request: Enter reported IC50 observed with Serine-protein kinase ATM (Homo sapiens) for `O=c1cc(N2CCOCC2)oc2c(-c3cccc4c3sc3ccccc34)cccc12`
Response: > 10 µM

====

Below: a set of entries, each annotated with reported IC50.
# target_system: DNA-dependent protein kinase catalytic subunit (Homo sapiens, UniProt P78527)
# experiment_description: Inhibition of human DNA-PK using GST-tagged p53N66 as substrate after 1 hr by ELISA-based chemiluminiscence assay
Express the result in nM but write the number alone.

CCN(CCC(=O)Nc1ccc(-c2cccc3c(=O)cc(N4CCOCC4)oc23)c2sc3ccccc3c12)Cc1ccncc1 :: 31
O=C(CNCc1ccncc1)Nc1ccc(-c2cccc3c(=O)cc(N4CCOCC4)oc23)c2sc3ccccc3c12 :: 8
COCCN1CCN(CCC(=O)Nc2ccc(-c3cccc4c(=O)cc(N5CCOCC5)oc34)c3sc4ccccc4c23)CC1 :: 19

Request: Entry `O=C(CCNCCN1CCNC1=O)Nc1ccc(-c2cccc3c(=O)cc(N4CCOCC4)oc23)c2sc3ccccc3c12` : reported IC50 = ?
Response: 6

Request: # iterate: `NCC(=O)Nc1ccc(-c2cccc3c(=O)cc(N4CCOCC4)oc23)c2sc3ccccc3c12`
Response: 12

Request: And then `O=C(CCNCCN1CCOCC1)Nc1ccc(-c2cccc3c(=O)cc(N4CCOCC4)oc23)c2sc3ccccc3c12` , what is it?
Response: 6

Request: Next entry: `CN(C)CC(=O)Nc1ccc(-c2cccc3c(=O)cc(N4CCOCC4)oc23)c2sc3ccccc3c12`
Response: 18

====

Entries with reported pIC50 on UniProt:P33261
Sequence (P33261 whole entry): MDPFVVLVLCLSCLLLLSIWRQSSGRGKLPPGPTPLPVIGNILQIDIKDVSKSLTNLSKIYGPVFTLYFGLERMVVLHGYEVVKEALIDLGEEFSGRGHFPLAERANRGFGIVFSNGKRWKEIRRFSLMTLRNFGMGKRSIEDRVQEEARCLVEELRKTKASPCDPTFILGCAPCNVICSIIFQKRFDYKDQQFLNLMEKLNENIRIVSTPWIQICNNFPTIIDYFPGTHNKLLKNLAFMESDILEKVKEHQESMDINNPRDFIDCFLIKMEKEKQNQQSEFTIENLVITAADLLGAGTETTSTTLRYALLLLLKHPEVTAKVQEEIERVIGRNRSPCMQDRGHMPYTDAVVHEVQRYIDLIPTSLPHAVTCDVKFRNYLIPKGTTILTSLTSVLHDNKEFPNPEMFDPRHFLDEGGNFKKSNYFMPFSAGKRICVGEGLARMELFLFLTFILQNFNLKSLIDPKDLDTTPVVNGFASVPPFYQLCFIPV
pIC50: −log10 of the molar value.

CN1CCN(CC(=O)Nc2ccc(-c3cccc4c(=O)cc(N5CCOCC5)oc34)c3sc4ccccc4c23)CC1 :: < 5.00

Request: // query pIC50 value for entry `CCN1CCN(CC(=O)Nc2ccc(-c3cccc4c(=O)cc(N5CCOCC5)oc34)c3sc4ccccc4c23)CC1`
Response: < 5.00

====

# target_system: DNA-dependent protein kinase catalytic subunit (Homo sapiens)
# experiment_description: Inhibition of DNA-PK (unknown origin)
quantity_measured: pIC50
On this scale, pIC50 is minus log10 of a concentration expressed in M (mol/L).

Request: Any idea what its pIC50 is? The molecule is `O=c1cc(N2CCOCC2)oc2c(-c3cccc4c3sc3ccccc34)cccc12`
Response: 7.40

====

# target_system: DNA-dependent protein kinase catalytic subunit (Homo sapiens, UniProt P78527)
# experiment_description: Inhibition of human DNA-PK using GST-tagged p53N66 as substrate after 1 hr by ELISA-based chemiluminiscence assay
quantity_measured: IC50 (nM)
Numeric answer only, unit nM assumed.

O=C(CN1CCOCC1)Nc1ccc(-c2cccc3c(=O)cc(N4CCOCC4)oc23)c2sc3ccccc3c12 :: 11

Request: Tell me the measured IC50 of `CC(=O)N1CCN(CCC(=O)Nc2ccc(-c3cccc4c(=O)cc(N5CCOCC5)oc34)c3sc4ccccc4c23)CC1` , please.
Response: 23

Request: Try this compound next: `O=C(CNCCN1CCNC1=O)Nc1ccc(-c2cccc3c(=O)cc(N4CCOCC4)oc23)c2sc3ccccc3c12`
Response: 7

====

# target_system: DNA-dependent protein kinase catalytic subunit (Homo sapiens, UniProt P78527)
# experiment_description: Inhibition of human DNA-PK using GST-tagged p53N66 as substrate after 1 hr by ELISA-based chemiluminiscence assay
Reported values of pIC50 for individual entries
Bear in mind: pIC50 is minus log10 of a mol/L concentration; give just that figure.

Solved entries (count: 10):
O=c1cc(N2CCOCC2)oc2c(-c3ccc(OCCNCCN4CCOCC4)c4c3sc3ccccc34)cccc12 :: 8.15
O=C(CN1CCCCCC1)Nc1ccc(-c2cccc3c(=O)cc(N4CCOCC4)oc23)c2sc3ccccc3c12 :: 7.29
NCCNCC(=O)Nc1ccc(-c2cccc3c(=O)cc(N4CCOCC4)oc23)c2sc3ccccc3c12 :: 7.80
CN(C)CCN(C)CC(=O)Nc1ccc(-c2cccc3c(=O)cc(N4CCOCC4)oc23)c2sc3ccccc3c12 :: 7.24
O=C(CNCC1CCCO1)Nc1ccc(-c2cccc3c(=O)cc(N4CCOCC4)oc23)c2sc3ccccc3c12 (stereo unspecified) :: 7.85
CN(CC(N)=O)C(=O)COc1ccc(-c2cccc3c(=O)cc(N4CCOCC4)oc23)c2sc3ccccc3c12 :: 7.96
O=c1cc(N2CCOCC2)oc2c(-c3cccc4c3sc3ccccc34)cccc12 :: 7.38
O=C(CCN1CCN(c2ncccn2)CC1)Nc1ccc(-c2cccc3c(=O)cc(N4CCOCC4)oc23)c2sc3ccccc3c12 :: 7.74
O=c1cc(N2CCOCC2)oc2c(-c3ccc(OCCNc4cccnc4)c4c3sc3ccccc34)cccc12 :: 8.70
CN(C)CCOc1ccc(-c2cccc3c(=O)cc(N4CCOCC4)oc23)c2sc3ccccc3c12 :: 8.10

Alright, here's another compound for you.
Request: Suppose we examine the compound `CN1CCN(C(=O)COc2ccc(-c3cccc4c(=O)cc(N5CCOCC5)oc34)c3sc4ccccc4c23)CC1` ; what pIC50 value has been reported?
Response: 7.54

====

# target_system: DNA-dependent protein kinase catalytic subunit (Homo sapiens)
# experiment_description: Inhibition of human DNA-PK using GST-tagged p53N66 as substrate after 1 hr by ELISA-based chemiluminiscence assay
Consider the following molecules and their measured IC50 readings.
Quick reminder: number only, in nM, skip the unit.

// worked examples, IC50 included
O=C(COc1ccc(-c2cccc3c(=O)cc(N4CCOCC4)oc23)c2sc3ccccc3c12)NCc1ccncc1 :: 10
CN1CCCC1CCNCCC(=O)Nc1ccc(-c2cccc3c(=O)cc(N4CCOCC4)oc23)c2sc3ccccc3c12 (stereo not given) :: 13
NCCC(=O)Nc1ccc(-c2cccc3c(=O)cc(N4CCOCC4)oc23)c2sc3ccccc3c12 :: 8
C[C@@H]1CN(C(=O)COc2ccc(-c3cccc4c(=O)cc(N5CCOCC5)oc34)c3sc4ccccc4c23)C[C@H](C)O1 :: 61
CC(=O)N1CCN(CCOc2ccc(-c3cccc4c(=O)cc(N5CCOCC5)oc34)c3sc4ccccc4c23)CC1 :: 2

Request: Looking for the measured IC50 of `CN(C)CCN(C)CCC(=O)Nc1ccc(-c2cccc3c(=O)cc(N4CCOCC4)oc23)c2sc3ccccc3c12` , can you help?
Response: 78

====

IC50 values for the compounds below.
# target_system: DNA-dependent protein kinase catalytic subunit (Homo sapiens, UniProt P78527)
# experiment_description: Inhibition of human DNA-PK using GST-tagged p53N66 as substrate after 1 hr by ELISA-based chemiluminiscence assay
Respond with the bare value in nM.

COCCNCCC(=O)Nc1ccc(-c2cccc3c(=O)cc(N4CCOCC4)oc23)c2sc3ccccc3c12 :: 8
CCN(CC)CCOc1ccc(-c2cccc3c(=O)cc(N4CCOCC4)oc23)c2sc3ccccc3c12 :: 22

Request: // lookup IC50 for `O=C(CNCCN1CCOCC1)Nc1ccc(-c2cccc3c(=O)cc(N4CCOCC4)oc23)c2sc3ccccc3c12`
Response: 12

Request: Consider next the compound `COCCN1CCN(CC(=O)Nc2ccc(-c3cccc4c(=O)cc(N5CCOCC5)oc34)c3sc4ccccc4c23)CC1` in the same way.
Response: 6
